Recorded metric: logP
Numbers only.

Guide cases for logP, answers given:
>>> measured_number("O=C(O)Cn1c(=O)sc2cccc(Cl)c21")
1.34
>>> measured_number("CC#Cc1cc(C)nc(Nc2ccccc2)n1")
3.28
>>> measured_number("COc1cc(OC)n2nc(S(=O)(=O)Nc3c(Cl)ccc(C)c3Cl)nc2n1")
3.08
>>> measured_number("CCCCC(O)(Cn1cncn1)c1ccc(Cl)cc1Cl (stereo unspecified)")
3.9

Here are 7 molecules. What values of logP were reported for them?
1. CC(C)(C)C(O)(CCc1ccc(Cl)cc1)Cn1cncn1 (stereo unspecified)
2. CCN(Cc1c(F)cccc1Cl)c1c([N+](=O)[O-])cc(C(F)(F)F)cc1[N+](=O)[O-]
3. O=C(Nc1ccc(Cl)c(Cl)c1)Nc1cc(Cl)ccc1Oc1ccc(Cl)cc1S(=O)(=O)[O-].[Na+]
4. Cc1cccc(C)c1N(Cn1cccn1)C(=O)CCl
5. CCSCCSP(=S)(OC)OC
6. Cc1cc(C2CC2)nc(Nc2ccccc2)n1
7. COc1cc(OC)nc(NC(=O)NS(=O)(=O)c2ncccc2C(=O)N(C)C)n1

Output:
1: 3.7; 2: 5.45; 3: 1.89; 4: 2.13; 5: 3.15; 6: 4; 7: 0.01

# batch: return logP for each of the 7 molecules below
1. COC(=O)C(C)Oc1ccc(Oc2ncc(C(F)(F)F)cc2Cl)cc1 (stereo unspecified)
2. COC(=O)c1c(Cl)c(Cl)c(C(=O)OC)c(Cl)c1Cl
3. COP(=O)(OC)SCn1c(=O)oc2cc(Cl)cnc21
4. CC1(C)[C@H](/C=C(\Cl)C(F)(F)F)[C@@H]1C(=O)O[C@H](C#N)c1cccc(Oc2ccccc2)c1
5. COc1cc(OC)nc(N=C(O)NS(=O)(=O)N(C)S(C)(=O)=O)n1
6. CCOP(=S)(OCC)Oc1ncn(-c2ccccc2)n1
7. CCOC(=O)C1(C)OC(=O)N(c2cc(Cl)cc(Cl)c2)C1=O (stereo unspecified)

Output:
4.07
4.28
1.05
6.8
1.63
3.34
3.15

Hi there! I need logP for each item below, if you can.
1. CC1(C)CCC(Cc2ccc(Cl)cc2)C1(O)Cn1cncn1 (stereo unspecified)
2. C#CCOc1cc(-n2nc(C(C)(C)C)oc2=O)c(Cl)cc1Cl

Output:
[3.85, 3.95]
